Test system: MALME-3M melanoma
test: NCI-60 one-dose screen, 48 h (100 = growth as untreated, 0 = no growth, -100 = all killed)
protocolConditions: 10 µM unless noted
Compounds without any hit were thinned out: in the full panel of roughly 83,000, 20% have a hit.
quantityName: growth (%)
Report the value in % with no unit label.

Examples with answers:
>  <compound>
COc1ccc(-c2[nH]nc(N)c2-c2cc(OC)c3c(c2)OCO3)cc1

>  <testedOn>
MALME-3M melanoma

>  <growth (%)>
46.9

$$$$
>  <compound>
O=c1ccn(C2CC(O)C(O)C(CO)O2)c(=O)[nH]1 (stereo unspecified)

>  <testedOn>
MALME-3M melanoma

>  <growth (%)>
112

$$$$
>  <compound>
C/C=C/C1=CN2C(=O)c3cc(OC4OC(C)C(NC)C(C)(O)C4O)c(C)cc3N=C[C@@H]2C1 (stereo partly specified)

>  <testedOn>
MALME-3M melanoma

>  <growth (%)>
-43

$$$$
>  <compound>
O=C(O)COc1ccc(-c2cssc2=S)cc1

>  <testedOn>
MALME-3M melanoma

>  <growth (%)>
97

$$$$
>  <compound>
CCCCCCCCCCCCNC(=O)[C@H]1CSC(c2cc3ccccc3s2)N1 (stereo partly specified)

>  <testedOn>
MALME-3M melanoma

>  <growth (%)>
15.4

$$$$
>  <compound>
CC(=O)Oc1cccc(S(=O)(=O)n2cc(C(=O)C(=O)Nc3ccncc3)c3ccccc32)c1

>  <testedOn>
MALME-3M melanoma

>  <growth (%)>
90.4

$$$$

**Query** Requested read-out: growth. Entry: Cn1ncc2c(Sc3ccc(Cl)cc3)ncnc21
**Result** 69.9

**Query** Reported growth, compound CCc1ccc(-c2ccc(=O)n(-c3ccc(S(N)(=O)=O)cc3)n2)cc1 : ____
**Result** 35.6

**Query** Please give the measured growth for this compound: Cn1c(=O)c2[nH]c(C3CC=CCC3)nc2n(C)c1=O (stereo unspecified)
**Result** 107

**Query** If you can, please state the reported growth value of c1ccc(-c2cn(-c3ccccc3)c(-c3ccccc3)n2)cc1 .
**Result** 95

**Query** What does the data say about its growth? Entry: Oc1ccccc1/C=N/NC(=S)NC1CC2C=CC1C2 (stereo unspecified)
**Result** 102

* * *

System: A549/ATCC NSCLC
test: NCI-60 one-dose screen, 48 h
protocolConditions: 10 µM unless noted
About 83,000 compounds went through this panel and 20% of them were active in at least one assay; those are over-represented in the sample as a whole. Calls of active or inactive are those of the source. The calls were made as follows: active = growth percent below 10; inactive = the rest.
Field 'call' accepts active, inactive

Please review the entries below; each comes with its answer.
>  <molecule>
CCc1cnc(=S)n(-c2ccccc2)c1

>  <className>
inactive

$$$$
>  <molecule>
NC1=NN(O)C2=CC([N+](=O)[O-])C=CC2=N1 (stereo not given)

>  <className>
inactive

$$$$
>  <molecule>
OB(O)c1cccc(-c2nc3ccc4[nH]ncc4c3c3c2CCCC3)c1F

>  <className>
inactive

$$$$
>  <molecule>
O=C(Nc1cccc(-n2cc(-c3ccncc3)c(-c3ccc(Cl)c(O)c3)n2)c1)Nc1cccc(C(F)(F)F)c1

>  <className>
active

$$$$
>  <molecule>
O=[N+]([O-])c1ccc(/C=C/C2(CCl)OCCO2)cc1

>  <className>
inactive

$$$$

**Query** Test call for this molecule, please: CCCCCCCCCCCCCCCCCCNC(=O)[C@H]1CSC(c2ccc(OC)cc2O)N1 (stereo not given in full)
**Result** inactive

**Query** Identify the outcome logged in this assay for the molecule shown: N=C(N)c1ccc(-c2ccc(-c3cncc4ccccc34)s2)cc1F
**Result** active

**Query** Hi, do you know how O=C(O)c1cn(C2CC2)c2cc(N3CCN(C(=O)/C=C/c4ccc(Cl)cc4)CC3)c(F)cc2c1=O came out in this test?
**Result** inactive

**Query** Please let me know the test result on file for Clc1cc(Cl)c2nc(-c3ccc(-c4ccc(/C=N/NC5=NCCN5)cc4)s3)cn2c1 .
**Result** inactive

**Query** Hi, do you know how CC(=O)Oc1cccc(S(=O)(=O)n2cc(C(=O)C(=O)Nc3ccncc3)c3ccccc32)c1 came out in this test?
**Result** inactive

These entries and their values trace back to PubChem BioAssay (NCI).
